Biological target: mouse 11β-HSD1 (Mus musculus, UniProt P50172)
Construct: expressed in transfected cells
Sequence (P50172 whole entry): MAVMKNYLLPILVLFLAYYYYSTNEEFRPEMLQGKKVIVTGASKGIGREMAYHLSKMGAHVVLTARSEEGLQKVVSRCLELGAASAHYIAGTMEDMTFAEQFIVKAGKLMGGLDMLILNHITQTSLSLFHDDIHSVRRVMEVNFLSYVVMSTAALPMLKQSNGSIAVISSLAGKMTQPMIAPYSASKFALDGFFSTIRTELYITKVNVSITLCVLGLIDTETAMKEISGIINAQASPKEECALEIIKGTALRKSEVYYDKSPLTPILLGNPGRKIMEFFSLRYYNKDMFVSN
Experiment: Enzyme inhibitory activity assay, lysate of CHO-K1 cells stably expressing mouse 11β-HSD1, cortisol by competitive ELISA
Type: biochemical
Settings: Table 2; cell lysate, 100 nmol/L cortisone, NADPH, 37° C. 1 hour; read-out: in vitro assay (IC50 uM) m HSD1
valueKind: IC50 (µM)

// worked examples, IC50 included
INSERT INTO results (compound, target, val) VALUES
  ('COC(=O)[C@]12CC3CC(C1)[C@@H](N1C(=O)C(C)(C)C1c1cccc4ccccc14)C(C3)C2 (some centres unmarked) [Example 10]', 'mouse 11β-HSD1 (Mus musculus, UniProt P50172)', 0.034),
  ('CC1(C)C(=O)N(C2C3CC4CC(C3)CC2C4)C1c1ccc(F)c(Cl)c1 (centres unmarked) [Example 29]', 'mouse 11β-HSD1 (Mus musculus, UniProt P50172)', 0.59),
  ('CC1(C)C(=O)N(C2C3CC4CC(C3)CC2C4)C1c1ccc(Cl)c(Cl)c1 (centres unmarked) [Example 26]', 'mouse 11β-HSD1 (Mus musculus, UniProt P50172)', 0.46),
  ('COC(=O)[C@]12CC3CC(C1)[C@@H](N1C(=O)C(C)(C)C1c1cccc4cccnc14)C(C3)C2 (some centres unmarked) [Example 18]', 'mouse 11β-HSD1 (Mus musculus, UniProt P50172)', 0.074),
  ('CC1(C)C(=O)N([C@H]2C3CC4CC2C[C@](Cl)(C4)C3)C1c1cccc2ccccc12 (some centres unmarked) [Example 5]', 'mouse 11β-HSD1 (Mus musculus, UniProt P50172)', 0.66),
  ('CC1(C)C(=O)N(C2C3CC4CC(C3)CC2C4)C1c1ccccc1C(F)(F)F (centres unmarked) [Example 41]', 'mouse 11β-HSD1 (Mus musculus, UniProt P50172)', 0.079),
  ('COc1ccccc1C1N(C2C3CC4CC(C3)CC2C4)C(=O)C1(C)C (centres unmarked) [Example 33]', 'mouse 11β-HSD1 (Mus musculus, UniProt P50172)', 0.072),
  ('COc1ccc(C2N(C3C4CC5CC(C4)CC3C5)C(=O)C2(C)C)c(C)c1 (centres unmarked) [Example 56]', 'mouse 11β-HSD1 (Mus musculus, UniProt P50172)', 0.46),
  ('COc1ccc(C2N(C3C4CC5CC(C4)CC3C5)C(=O)C2(C)C)c(F)c1 (centres unmarked) [Example 40]', 'mouse 11β-HSD1 (Mus musculus, UniProt P50172)', 0.34),
  ('CC1(C)C(=O)N(C2C3CC4CC(C3)CC2C4)C1c1ccc(Cl)cc1 (centres unmarked) [Example 22]', 'mouse 11β-HSD1 (Mus musculus, UniProt P50172)', 0.66);

[A] CC1(C)C(=O)N(C2C3CC4CC(C3)CC2C4)C1c1ccccc1Cl (centres unmarked) [Example 44]
[B] COc1cccc(C2N(C3C4CC5CC(C4)CC3C5)C(=O)C2(C)C)c1 (centres unmarked) [Example 34]
[C] CC1(C)C(=O)N(C2C3CC4CC(C3)CC2C4)C1Cc1ccccc1 (centres unmarked) [Example 69]
Prompt: Arrange the 3 entries by IC50 so the values rise. List each label, following the requested order.
Response: C, B, A

[a] CC1(C)C(=O)N([C@H]2C3CC4CC2C[C@](C(N)=O)(C4)C3)C1c1cccc(Cl)c1Cl (some centres unmarked) [Example 9]
[b] CC1(C)C(=O)N([C@H]2C3CC4CC2C[C@](C(N)=O)(C4)C3)C1c1cccc2ccccc12 (some centres unmarked) [Example 12]
[c] CC1(C)C(=O)N([C@H]2C3CC4CC2C[C@](C(=O)O)(C4)C3)C1c1cccc2c1OCO2 (some centres unmarked) [Example 14]
Prompt: Order the records by IC50, with each subsequent value no larger than the one before. List each label, following the requested order.
Response: a, b, c
(a: 0.035 µM, b: 0.023 µM, c: 0.0095 µM)
